The measurements presented in this section are drawn from PubChem BioAssay AID256.

Measured T/C accompanies every entry in the list below.
Tested on: CD2F1 mice, L1210 leukemia ip, survival T/C
Experiment: NCI In Vivo Anticancer Drug Screen. Data for tumor model L1210 Leukemia (intraperitoneal) in CD2F1 (CDF1) mice
Conditions: endpoint: mean survival time; dose: 50.0 mg/kg/injection; schedule: Q01DX001 (ip); vehicle: saline; higher = longer survival
Inconclusive results and toxic doses are left out.
Endpoint name: T/C

INSERT INTO measurements (compound, endpoint_name, result) VALUES
  ('CN(C)CCNCc1ccc2c(c1)OCO2', 'T/C', '102 % of control'),
  ('CN(C)c1nc2c(N)ncnc2n1C1OC(CO)C(O)C1O (configuration not stated)', 'T/C', '100 % of control'),
  ('CC(C)/C=N\O', 'T/C', '107 % of control'),
  ('CC/C1=C/N(C=O)CCc2c([nH]c3ccccc23)C(C(=O)OC)(c2cc3c(cc2OC)N(C)C2C(O)(C(=O)OC)C(OC(C)=O)C4(CC)C=CCN5CCC32C54)CC(=O)C1 (configuration not stated)', 'T/C', '107 % of control'),
  ('O=P1(NCCCl)OCCCN1CCCl (configuration not stated)', 'T/C', '122 % of control'),
  ('CNC(=O)c1cccc2ccccc12', 'T/C', '103 % of control'),
  ('Nc1ncc[nH]1', 'T/C', '110 % of control');
